Study target: His6-PDK1 (aa 52-556) (Homo sapiens, UniProt O15530)
Construct: 15 μL His6-PDK1 (aa 52-556) 3.33 ng/well); host or cells: baculovirus-infected insect cells
Sequence (O15530 52-556): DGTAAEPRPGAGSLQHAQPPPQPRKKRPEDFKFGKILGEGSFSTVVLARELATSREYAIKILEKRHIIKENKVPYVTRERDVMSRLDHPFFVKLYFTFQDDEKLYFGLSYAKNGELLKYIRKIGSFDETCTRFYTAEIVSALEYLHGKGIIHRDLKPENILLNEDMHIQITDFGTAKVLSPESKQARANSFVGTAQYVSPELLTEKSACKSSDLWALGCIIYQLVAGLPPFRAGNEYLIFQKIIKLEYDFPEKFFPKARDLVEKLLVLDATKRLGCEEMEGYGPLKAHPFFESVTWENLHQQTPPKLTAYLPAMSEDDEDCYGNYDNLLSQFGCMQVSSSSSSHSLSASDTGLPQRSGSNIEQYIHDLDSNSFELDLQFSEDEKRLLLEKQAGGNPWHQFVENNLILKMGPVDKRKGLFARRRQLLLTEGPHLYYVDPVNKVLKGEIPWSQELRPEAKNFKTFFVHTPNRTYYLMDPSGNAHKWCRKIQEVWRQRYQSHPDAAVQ
Assay name: PDK1 kinase assay III (with Tween 20)
Format: biochemical
Condition description: compound at 10 μM; PDK1 kinase assay III (values without asterisk); read-out: % CTL (residual activity of the enzyme relative to DMSO control)
The entries below are paired with their reported remaining activity at 10 µM.

| Molecule | Measure unit | remaining activity at 10 µM |
| --- | --- | --- |
| Cc1c(C(=O)NCC#Cc2ccc3nc(NC(C)C)ncc3c2)c(=O)n(Cc2ccc(F)c(F)c2)n1C | % | 24.4 |
| Cc1c(C(=O)NCC#Cc2ccc3cn[nH]c3c2)c(=O)n(Cc2ccc(F)c(F)c2)n1C [II-3] | % | 12.4 |
| Cc1c(C(=O)NC/C=C/c2ccc3nc(Nc4ccc(C(=O)N(C)C5CCN(C)CC5)c(F)c4)ncc3c2)c(=O)n(Cc2ccc(F)c(F)c2)n1C | % | 13.7 |
| Cc1c(C(=O)NC/C=C/c2ccc3nc(Nc4ccc(N(C)C5CCN(C)CC5)cc4)ncc3c2F)c(=O)n(Cc2ccc(F)c(F)c2)n1C [IV-36] | % | 14.2 |
| O=C1Nc2cc(/C=C/CNC(=O)c3cncn(Cc4ccc(F)c(F)c4)c3=O)ccc2/C1=C/c1cnc[nH]1 [I-2] | % | 12.2 |
| Cc1c(C(=O)NC/C=C/c2cc(OCCCN)c3nc(Nc4ccc(N5CCOCC5)cc4)ncc3c2)c(=O)n(Cc2ccc(F)c(F)c2)n1C | % | 12.5 |
| Cc1c(C(=O)NCC#Cc2ccc3nc(Nc4ccccc4)ncc3c2)c(=O)n(Cc2ccc(F)c(F)c2)n1C [III-15] | % | 19.1 |
| Cc1c(C(=O)NC/C=C/c2ccc3nc(Nc4ccc(CN(C)C)cc4)ncc3c2)c(=O)n(Cc2cc(F)c(F)c(F)c2)n1C [IV-20] | % | 14.3 |
| Cc1c(C(=O)NCC#Cc2cc(OCCN)c3nc(Nc4ccccc4)ncc3c2)c(=O)n(Cc2ccc(F)c(F)c2)n1C | % | 9.8 |
| Cc1c(C(=O)NC/C=C/c2ccc3c(c2)NC(=O)/C3=C\c2ccc[nH]2)c(=O)n(Cc2ccc(F)c(F)c2)n1C [I-16] | % | 15.4 |
| Cc1c(C(=O)NC/C=C/c2cc(OCCN)c3nc(Nc4ccc(N5CCOCC5)cc4)ncc3c2)c(=O)n(Cc2ccc(F)c(F)c2)n1C | % | 13 |
| COc1cc(/C=C/CNC(=O)c2cncn(Cc3ccc(F)c(F)c3)c2=O)cc2cnc(Nc3ccc(CN(C)C)cc3)nc12 [IV-18] | % | 15 |
| COc1cc(C(=O)NC2CCN(C)CC2)ccc1Nc1ncc2cc(C#CCNC(=O)c3c(C)n(C)n(Cc4ccc(F)c(F)c4)c3=O)ccc2n1 | % | 61.8 |
| Cc1c(C(=O)NCC#Cc2ccc3nc(Nc4ccc(N(C)C5CCN(C)CC5)cc4)ncc3c2F)c(=O)n(Cc2ccc(F)c(F)c2)n1C [III-27] | % | 12.8 |
| CN1CCC(N(C)c2ccc(Nc3ncc4c(F)c(C#CCNC(=O)c5cncn(Cc6ccc(F)c(F)c6)c5=O)ccc4n3)cc2)CC1 [III-26] | % | 12.4 |
| COCCCN(C)C(=O)c1ccc(Nc2ncc3cc(C#CCNC(=O)c4cncn(Cc5ccc(F)c(F)c5)c4=O)ccc3n2)cc1 [III-104] | % | 15.8 |
| Cc1c(C(=O)NCC#Cc2ccc3c(-c4ccccc4)n[nH]c3c2)c(=O)n(Cc2ccc(F)c(F)c2)n1C [II-4] | % | 16.9 |
| O=C1Nc2cc(C#CCNC(=O)c3cncn(Cc4ccc(F)c(F)c4)c3=O)ccc2/C1=C/c1cnc[nH]1 [I-44] | % | 15.6 |
| Cc1c(C(=O)NC/C=C/c2cc(OCCN)c3nc(Nc4ccccc4)ncc3c2)c(=O)n(Cc2ccc(F)c(F)c2)n1C | % | 19.5 |
| O=C1Nc2cc(/C=C/CNC(=O)C3CCCN(Cc4ccc(F)c(F)c4)C3=O)ccc2/C1=C/c1ccc[nH]1 (centres unmarked) [I-10] | % | 36.1 |
| COC(=O)c1ccc(Nc2ncc3cc(/C=C/CNC(=O)c4cncn(Cc5ccc(F)c(F)c5)c4=O)ccc3n2)cc1OC | % | 38.2 |
| O=C1Nc2cc(/C=C/CNC(=O)c3cncn(Cc4ccc(F)c(F)c4)c3=O)ccc2/C1=C/c1c[nH]c(-c2cccnc2)n1 [I-36] | % | 25.4 |
| CN(C)Cc1ccc(Nc2ncc3cc(/C=C/CNC(=O)c4cc(Cl)nn(Cc5ccc(F)c(F)c5)c4=O)ccc3n2)cc1 [IV-39] | % | 17.9 |
| O=C(NCCO)c1ccc(Nc2ncc3cc(C#CCNC(=O)c4cncn(Cc5ccc(F)c(F)c5)c4=O)ccc3n2)cc1 [III-115] | % | 13.5 |
| Cc1c(C(=O)NCC#Cc2ccc3nc(Nc4ccc(C(=O)N(C)CCCO)cc4)ncc3c2)c(=O)n(Cc2ccc(F)c(F)c2)n1C | % | 23.2 |
| Cc1c(C(=O)NCC#Cc2ccc3nc(Nc4ccc(C(=O)N(C)C5CCN(C)CC5)cc4)ncc3c2)c(=O)n(Cc2ccc(F)c(F)c2)n1C | % | 12.4 |
| Cn1c(=O)c(C#CCNC(=O)c2cncn(Cc3ccc(F)c(F)c3)c2=O)cc2cnc(Nc3ccccc3)nc21 [III-22] | % | 24.9 |
| O=C(NCC#Cc1cc(OC2CCNCC2)c2nc(Nc3ccc(N4CCOCC4)cc3)ncc2c1)c1cncn(Cc2ccc(F)c(F)c2)c1=O | % | 9.4 |
| O=C1Nc2cc(/C=C/CNC(=O)c3cncn(Cc4ccc(F)c(F)c4)c3=O)ccc2/C1=C/c1ncc[nH]1 [I-37] | % | 16.6 |
